For each of the compounds below, state its pIC50.
Target: Polyunsaturated fatty acid 5-lipoxygenase (Homo sapiens)
Sequence (P09917 whole entry): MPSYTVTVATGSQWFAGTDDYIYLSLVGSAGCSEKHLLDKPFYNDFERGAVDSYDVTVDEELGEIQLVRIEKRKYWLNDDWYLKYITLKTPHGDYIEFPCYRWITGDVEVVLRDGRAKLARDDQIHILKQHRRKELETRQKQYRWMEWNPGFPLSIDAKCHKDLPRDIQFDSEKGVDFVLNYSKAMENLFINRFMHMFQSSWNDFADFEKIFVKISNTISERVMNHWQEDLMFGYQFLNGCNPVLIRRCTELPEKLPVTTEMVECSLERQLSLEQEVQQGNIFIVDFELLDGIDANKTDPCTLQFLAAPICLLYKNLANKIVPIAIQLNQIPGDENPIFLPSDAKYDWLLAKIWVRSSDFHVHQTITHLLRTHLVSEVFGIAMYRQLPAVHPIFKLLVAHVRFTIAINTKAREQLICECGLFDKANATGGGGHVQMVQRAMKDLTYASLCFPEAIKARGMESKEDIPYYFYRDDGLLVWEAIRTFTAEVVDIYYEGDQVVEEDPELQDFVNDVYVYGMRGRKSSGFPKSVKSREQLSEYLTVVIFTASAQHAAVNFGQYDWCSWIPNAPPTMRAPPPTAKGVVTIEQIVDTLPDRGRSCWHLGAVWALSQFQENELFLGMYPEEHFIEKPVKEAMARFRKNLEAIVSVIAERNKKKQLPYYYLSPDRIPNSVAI
Assay: Inhibition of human neutrophil 5-lipoxygenase
pIC50: −log10 of the molar value.

Cc1cc(/C=C/C(=O)c2cccs2)cc(C)c1O | < 6.00
Cc1cc(/C=C/c2ccc(C(=O)O)cc2)cc(C)c1O | < 6.00
Cc1cc(/C=C/c2ccc(C(C)C)cc2)cc(C)c1O | < 6.00
CCc1cc(/C=C/c2cccs2)cc(CC)c1O | ~7.00
CC(C)(C)c1cc(/C=C/c2cccnc2)cc(C(C)(C)C)c1O | 5.77

Below are 2 compounds. Give each one its pIC50.
1. Cc1cc(/C=C/c2ccccc2C(F)(F)F)cc(C)c1O
2. Cc1cc(/C=C/c2ccccc2)cc(C)c1O

Reply text:
1. > 6.00
2. 7.00

----------
target: Polyunsaturated fatty acid 5-lipoxygenase (Homo sapiens); assay: Inhibition of lipoxygenase at the concentration of 1 uM
# cutoff 20% applies to inhibition; >= gives y, < gives n

Known results for molecules:
Cc1cc(/C=C/c2ccc(F)cc2F)cc(C)c1O | y
Cc1cc(CCc2ccc(F)cc2)cc(C)c1O | y

Inquiry: Check this molecule for inhibition at or above 20%: Cc1cc(/C=C/C(=O)c2ccc(F)cc2)cc(C)c1O
Reply text: y

Inquiry: Check this molecule for inhibition at or above 20%: Cc1cc(/C=C/c2ccc(C(C)C)cc2)cc(C)c1O
Reply text: y

Inquiry: Check this molecule for inhibition at or above 20%: CCCC/C(=C\c1cc(C)c(O)c(C)c1)c1ccc(F)cc1
Reply text: y

Inquiry: Check this molecule for inhibition at or above 20%: Cc1cc(/C=C/c2ccc(C(=O)O)cc2)cc(C)c1O
Reply text: n

----------
target: Polyunsaturated fatty acid 5-lipoxygenase (Homo sapiens) (UniProt P09917); test: Inhibition of lipoxygenase at the concentration of 1 uM
For each of the molecules below, state its inhibition.
Answers are plain numbers, in %.

Recorded inhibition, per entry:
Cc1cc(C(=O)/C=C/c2cccs2)cc(C)c1O | 0
Cc1ccc(/C=C/c2cc(C(C)(C)C)c(O)c(C(C)(C)C)c2)cc1 | 0

Below are 2 molecules. Give each one its inhibition.
1. Cc1cc(/C=C/C(=O)c2cccs2)cc(C)c1O
2. Cc1cc(/C=C/c2cccc(C(=O)O)c2)cc(C)c1O

Reply text:
[22, 0]
